# test target: T1, Regulator of sigma D from Escherichia coli (Rsd^ec) (E. coli, UniProt P0AFX4 1-158)
# T1 construct: Rsd (regulator of sigma D), anti-sigma factor of sigma 70, E. coli; 158-residue-long protein; called 'intact Rsd' in the abstract and 'wild-type Rsd vector' in the methods; Vector was a gift from Ann Hochschild; source: E. coli C41, purified as described [24,50]
# T1 sequence (looked up): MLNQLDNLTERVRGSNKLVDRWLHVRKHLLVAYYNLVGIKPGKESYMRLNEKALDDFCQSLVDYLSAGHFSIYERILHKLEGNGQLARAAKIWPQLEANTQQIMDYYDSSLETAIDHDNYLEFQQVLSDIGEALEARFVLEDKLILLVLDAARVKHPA
# assay: ITC; Rsd^ec or EIN^sc (10–20 µM) in the cell, peptide (100–200 µM) in the syringe; 50 mM Tris, pH 7.0, 25 °C; single binding-site model, 1:1 stoichiometry assumed
# measurement parameters: both partners purified
Kindly state dH for each of the entries shown.
Answers are plain numbers, in kcal/mol.

Examples from the recorded data:
[[record]]
binder = "Ac-GWAEGLHARPASIAVRAATATG-NH2 (HPr of Streptomyces coelicolor, residues 9-30, with F22A; source: synthetic peptide, bought: NZYTech (purity >95%)) [HPr^9–30 F22A peptide]"
readout_label = "dH"
numeric_value = 1.1

[[record]]
binder = "Ac-GWAEGLHARPASAFVRAATATG-NH2 (HPr of Streptomyces coelicolor, residues 9-30, with I21A; source: synthetic peptide, bought: NZYTech (purity >95%)) [HPr^9–30 I21A peptide]"
readout_label = "dH"
numeric_value = 1

[[record]]
binder = "Ac-GWAEGLHARPASIFARAATATG-NH2 (HPr of Streptomyces coelicolor, residues 9-30, with V23A; source: synthetic peptide, bought: NZYTech (purity >95%)) [HPr^9–30 V23A peptide]"
readout_label = "dH"
numeric_value = -0.8


Would you be so kind as to report dH for each listed record?
1. Ac-GWAEGLHARAASIFVRAATATG-NH2 (HPr of Streptomyces coelicolor, residues 9-30, with P18A; source: synthetic peptide, bought: NZYTech (purity >95%)) [HPr^9–30 P18A peptide]
2. Ac-GWAEGLHARPASIFVRAATATG-NH2 (HPr (histidine phosphocarrier) of Streptomyces coelicolor, HPr^sc, residues 9-30; first letter printed as G^9; The limit residues are printed as Gly9-Ala30 (abstract) and Ala9-Gly30 (introduction); source: synthetic peptide, bought: NZYTech (purity >95%)) [HPr^9–30 wild-type peptide (residues 9-30 of HPr from Streptomyces coelicolor)]
3. Ac-GWAEGLHARAASAFARAATATG-NH2 (HPr of Streptomyces coelicolor, residues 9-30, with P18A, I21A and V23A; also called triple-mutant; source: synthetic peptide, bought: NZYTech (purity >95%)) [HPr^9–30 P18A/I21A/V23A peptide]
4. Ac-GWAEGLHARAASAAARAATATG-NH2 (HPr of Streptomyces coelicolor, residues 9-30, with P18A, I21A, F22A and V23A; also called quadruple-mutant; source: synthetic peptide, bought: NZYTech (purity >95%)) [HPr^9–30 P18A/I21A/F22A/V23A peptide]

1. 1.1
2. 1.3
3. 0.6
4. 4.3

All values here come from paper PMC8509676.
